system: U2OS; assay: Incucyte cell viability with U2OS; assay type: toxicity, cell-based; conditions: human, 18 h, 10 µM, compound concentration 10 uM, replicate number 1, timepoint 18 hours; also: filed as whole numbers so only -1 and 0 and 1 occur
In this section we review reported Growth Rate values for a set of compounds.
Measure: Growth Rate

[[record]]
compound = "CN1C(=O)c2sccc2N(C)c2nc(Nc3ccc(S(N)(=O)=O)cc3)ncc21"
observed = 0

[[record]]
compound = "C[S+]([O-])c1ccc(-c2nc(-c3ccncc3)c(-c3ccc(F)cc3)[nH]2)cc1 (stereo not drawn) [SB-203580]"
observed = 1

[[record]]
compound = "C=CC(=O)Nc1cccc(C(=O)Nc2ccc(Nc3cc(-c4[nH]c(SC)nc4C)ccn3)cc2)c1"
observed = 0

[[record]]
compound = "CN1CCC[C@@H]1CCO[C@](C)(c1ccccc1)c1ccc(Cl)cc1.O=C(O)/C=C/C(=O)O [CLEMASTINE FUMARATE]"
observed = 0

[[record]]
compound = "CN(C)[C@@H]1CCN(c2cc(-c3ccccc3)nc3ccnn23)C1 [(R)-ZINC-3573]"
observed = 0

[[record]]
compound = "CCC(=O)N1CCOc2c(cc(-c3ccc(OC)c(OC)c3)cc2OC[C@H]2CCCN(C)C2)C1"
observed = 1

[[record]]
compound = "CC(=O)Nc1c(C(C)=O)c(=O)n(C)c2nc(-c3ccc(Cl)cc3Cl)c(-c3ccc(Cl)cc3)cc12 [NAPHTHYRIDINONE]"
observed = 0

[[record]]
compound = "O=S(=O)(c1ccccc1)N(CC(F)(F)F)c1ccc(C(O)(C(F)(F)F)C(F)(F)F)cc1 [T091317]"
observed = 1

